System: HepG2 cells
test: Cytotoxicity in HepG2 cells (intracellular ATP, ATPlite, 48 h)
Type: cell-based, human
runParameters: HepG2 cells; IC50 per ratio column head; unit inferred
Measured IC50 by item
Write down the numeric answer in µM and omit the unit.

A selection of reference data follows.
CCn1c(-c2nonc2N)nc2c(-c3cc4ccccc4s3)ncc(C(=O)N3CCC(N)C3)c21 (centres unmarked)	3.5
CN(C)Cc1ccc(-c2cccc(Nc3nccc(NCC(O)c4ccccc4)n3)c2)cc1 (centres unmarked)	5.87
CN(CCCNCc1ccc2ccccc2c1)CCCNCc1ccc2ccccc2c1	4.68
COc1cc2ccccc2c(CNCCCCCCNCc2c(OC)c(OC)cc3ccccc23)c1OC	4.7
CCc1c(CCNCCCCCCNCCc2ccc(OC)c(OC)c2C)ccc(OC)c1OC	7.75

Supply recorded IC50 for C[C@H]1CN(Cc2cccc(-c3cc(CNC(=O)c4cccc(CC5CCN(C)CC5)c4)ccc3F)c2)CCN1C here.
6.97

Supply recorded IC50 for CCN(Cc1ccc(-c2ccc(C(F)(F)F)cc2)cc1)C(=O)Cn1c(SCc2cccc(F)c2F)cc(=O)c2cc(CN3CCCCC3)ccc21 here.
4.2

Supply recorded IC50 for COc1ccc2cc(CNCCCCCCNCc3ccc4cc(OC)ccc4c3)ccc2c1 here.
3

----------
Test system: P. falciparum stage V gametocytes
test: microbe, parasite or virus in culture
Set-up: BacTiter-Glo ATP luminescence viability of purified stage V gametocytes in 384-well plates, per cent inhibition versus DMSO
runParameters: Plasmodium falciparum, 48 h, read-out: % Inhibition
readoutType: inhibition at 5 µM (%)
Write down the numeric answer in % and omit the unit.

Give inhibition at 5 µM for FC(F)(F)c1ccc2c(NN=Cc3cccc(Cl)c3)ccnc2c1 tested on P. falciparum stage V gametocytes.
-44.9

Give inhibition at 5 µM for CC(C)(C)CC(C)(C)c1ccc(O)c(C(=O)Nc2ccc([N+](=O)[O-])cc2)c1 tested on P. falciparum stage V gametocytes.
-13

Give inhibition at 5 µM for COc1ccc2nccc(NN=Cc3ccc(Cl)cc3)c2c1 tested on P. falciparum stage V gametocytes.
58.2

Give inhibition at 5 µM for COc1ccc2nccc(NN=Cc3ccccc3F)c2c1 tested on P. falciparum stage V gametocytes.
6.1

Give inhibition at 5 µM for COc1cccc2c(Oc3ccccc3C)ccnc12 tested on P. falciparum stage V gametocytes.
-32.5

Give inhibition at 5 µM for FC(F)(F)c1ccc2nccc(NN=Cc3ccccc3Cl)c2c1 tested on P. falciparum stage V gametocytes.
-24.8

Give inhibition at 5 µM for Nc1c2c(nc3ccc(C(=O)Nc4ccccc4)cc13)CCCC2 tested on P. falciparum stage V gametocytes.
39.7

Give inhibition at 5 µM for CN(C)CCCOc1ccc(-c2csc(NC(N)=NCc3ccccc3)n2)cc1 tested on P. falciparum stage V gametocytes.
35.3

Give inhibition at 5 µM for COc1ccc(C2CNCc3c2cc(OC)c(OC)c3Cl)cc1 (stereo not shown) tested on P. falciparum stage V gametocytes.
22.9

Give inhibition at 5 µM for COc1ccc2c(NN=Cc3cccc(Cl)c3)ccnc2c1 tested on P. falciparum stage V gametocytes.
98.7

Give inhibition at 5 µM for Cc1ccc2c(NN=Cc3ccc(Cl)cc3)cc(C)nc2c1 tested on P. falciparum stage V gametocytes.
40.7

----------
Measured % Inhibition by item
System: P. falciparum stage V gametocytes
test: Gametocytocidal ATP bioluminescence assay (single point 5 μM and 1 μM, dose-response)
Assay type: cell-based, Plasmodium falciparum
runParameters: P. falciparum gametocytes, 5 μM single concentration, 48 h, decrease of ATP level (S1 Table)
Write down the numeric answer in % and omit the unit.

A selection of reference data follows.
N#Cc1c(N2CCN(c3ccc(F)cc3)CC2)nc(N)c2c(N)nc3c(c12)CC(=O)N3C1CC1	44
O=C(NCCCN1CCN(c2cccc(Cl)c2)CC1)c1ccc(-c2nc3cc(Cl)c(Cl)cc3[nH]2)cc1	1.64
COc1ccc(Cl)cc1NC(=O)Nc1cc(C)nc2ccccc12	-50

Supply recorded % Inhibition for C1=C(c2c[nH]c3ccccc23)CCN(Cc2ccccc2)C1 here.
-71

Supply recorded % Inhibition for O=C(Nc1ccc(OC2CCN(Cc3ccccc3)CC2)c(Cl)c1)c1ccc(F)cc1 here.
19

Supply recorded % Inhibition for O=[N+]([O-])c1cccc(/C=N/Nc2ccnc3cc(F)ccc23)c1 here.
42

Supply recorded % Inhibition for Fc1ccc2c(NN=Cc3ccccc3)ccnc2c1 here.
16

Supply recorded % Inhibition for Cc1cc(NC(=O)Nc2ccc3nc(C)oc3c2)c2cc(Cl)ccc2n1 here.
38

Supply recorded % Inhibition for COc1ccc2c(NN=CC=Cc3ccccc3)cc(C)nc2c1 here.
34

Supply recorded % Inhibition for CNC(=O)c1cc(NCCCNCc2ccc(Cl)c(C(F)(F)F)c2)nc2ccccc12 here.
73

Supply recorded % Inhibition for CN(Cc1cccc(C#N)c1)C1CCN(c2cc(NC(=O)c3cccc(F)c3)ccn2)CC1 here.
21

Supply recorded % Inhibition for Cc1cccc2nc(-c3cccc(-c4cccc(NC(=O)Cc5ccc[n+]([O-])c5)c4)c3)[nH]c12 here.
25

Supply recorded % Inhibition for Cc1ccnc2nc(C(=O)Nc3cc(C(F)(F)F)ccc3N3CCCCC3)nn12 here.
-24

Supply recorded % Inhibition for COc1ccc(NC2=C(c3ccccc3)C(=O)c3ccccc32)cn1 here.
37

Supply recorded % Inhibition for O=C(Nc1ccc(CN2CCC(c3c[nH]c4ccc(O)cc34)CC2)cc1)c1ccc(-c2ccccc2)cc1 here.
-139

Supply recorded % Inhibition for CC(=O)Nc1ccc(CN2CCC(N(C)c3cc(NC(=O)c4cccs4)ccn3)CC2)cc1 here.
-7

Supply recorded % Inhibition for CCCCCCNC(=O)C1Cc2c([nH]c3ccccc23)C2(CCN(CCc3ccccc3)CC2)N1 (centres unmarked) here.
-58

----------
Measured % Control luminiscence by item
System: luciferase reaction (BacTiter-Glo)
test: Interference assay (inhibition of the BacTiter-Glo luciferase reaction)
Type: biochemical
Design: concentration or dose not given beside the values
runParameters: ATP interference assay
Write down the numeric answer in % and omit the unit.

A selection of reference data follows.
Cc1cc(F)ccc1-c1nc(NCC(O)CNCCc2ccccc2)nc2c1ccc(=O)n2-c1c(F)cccc1F (centres unmarked)	100
CN1CCC(C(=O)N(Cc2ccc(-c3ccc(CNCCc4ccccc4)cn3)cc2)C2CCN(Cc3ccccc3)CC2)CC1	95
COc1ccc2nc3cc(Cl)ccc3c(NCCN3CCN(C)CC3)c2c1	100
Fc1ccc(NC(=S)NN=Cc2ccccn2)cc1	100
CN(C)Cc1ccc(-c2cccc(Nc3nccc(NCC(O)c4ccccc4)n3)c2)cc1 (centres unmarked)	100

Supply recorded % Control luminiscence for COc1cccc(Nc2c(C(N)=O)cnc3ccc(-c4ccc([S+](C)[O-])cc4)cc23)c1 (centres unmarked) here.
100

Supply recorded % Control luminiscence for CN(C)CCCn1c(N)c(-c2nc3ccccc3[nH]2)c2nc(C#N)c(C#N)nc21 here.
100

Supply recorded % Control luminiscence for Fc1ccc(OC2CN(c3nccc(NCc4ccccc4Cl)n3)C2)cc1 here.
98

----------
Tested on: luciferase reaction (BacTiter-Glo)
test: Interference assay (inhibition of the BacTiter-Glo luciferase reaction)
Assay type: biochemical
Parameters: concentration or dose not given beside the values
runParameters: ATP interference assay
Measured % Control luminiscence by item
A complete answer gives the number and then names the unit.

COc1ccc(Nc2nccc(-c3ccc4ccnc(NCCCCN)c4c3)n2)cc1 [TCMDC-136642]	99%
CS(=O)(=O)CCNCc1nc(-c2ccc3c(=O)[nH]cnc3c2)cs1 [TCMDC-138539]	98%
COc1ccc2c(NN=Cc3ccc(OC)c4ccccc34)cc(C)nc2c1 [TCMDC-142218]	97%
COc1ccc(-c2cnc3[nH]cc(-c4ccncc4)c3c2)cc1OC [TCMDC-135853]	92%
Ic1cc(CNC2CCCCC2)ccc1OCc1cccc(COc2ccc(CNC3CCCCC3)cc2I)c1 [TCMDC-137261]	100%
COc1cc2nc(N3CCC(CNCc4ccc(-c5ccc(C(F)(F)F)cc5)cc4)CC3)nc(N)c2cc1OC [TCMDC-138757]	100%

Supply recorded % Control luminiscence for CC(C)CC(=O)N(Cc1ccc(-c2ccc(CNC3Cc4ccccc4C3)cc2)cc1)C1CCNCC1 [TCMDC-141449] here.
100%

Supply recorded % Control luminiscence for O=C(c1ccc([N+](=O)[O-])o1)N1CCC(Cc2ccc(C(F)(F)F)cc2)CC1 [TCMDC-124805] here.
100%

----------
Measured inhibition at 5 µM by item
System: P. falciparum stage V gametocytes
test: microbe, parasite or virus in culture
Parameters: BacTiter-Glo ATP luminescence viability of purified stage V gametocytes in 384-well plates, per cent inhibition versus DMSO
runParameters: Plasmodium falciparum, 48 h, read-out: % Inhibition
Write down the numeric answer in % and omit the unit.

CON(CCCN(C)C)C(=N)N [TCMDC-142297]	12.5

Give inhibition at 5 µM for Cc1cc(NN=Cc2ccc(Cl)cc2)c2cccc(C)c2n1 [TCMDC-142115] tested on P. falciparum stage V gametocytes.
-40.8

Give inhibition at 5 µM for COc1cc(C=NNc2cc(C)nc3c(OC)cccc23)cc(OC)c1OC [TCMDC-142200] tested on P. falciparum stage V gametocytes.
84.3

Give inhibition at 5 µM for COc1ccc(C=NNc2cc(C)nc3ccccc23)cc1OC [TCMDC-142184] tested on P. falciparum stage V gametocytes.
-5.19

Give inhibition at 5 µM for Cc1cc(F)ccc1Nc1nc(N(C)c2ccccc2)c2cc(OCCN(C)C)ccc2n1 [TCMDC-142333] tested on P. falciparum stage V gametocytes.
31.3

Give inhibition at 5 µM for Cc1cc(NN=Cc2cccc(Cl)c2)c2ccc(F)cc2n1 [TCMDC-142161] tested on P. falciparum stage V gametocytes.
-34
